Molecular target: human p38α (Homo sapiens (Human))
Sequence (Q16539 whole entry): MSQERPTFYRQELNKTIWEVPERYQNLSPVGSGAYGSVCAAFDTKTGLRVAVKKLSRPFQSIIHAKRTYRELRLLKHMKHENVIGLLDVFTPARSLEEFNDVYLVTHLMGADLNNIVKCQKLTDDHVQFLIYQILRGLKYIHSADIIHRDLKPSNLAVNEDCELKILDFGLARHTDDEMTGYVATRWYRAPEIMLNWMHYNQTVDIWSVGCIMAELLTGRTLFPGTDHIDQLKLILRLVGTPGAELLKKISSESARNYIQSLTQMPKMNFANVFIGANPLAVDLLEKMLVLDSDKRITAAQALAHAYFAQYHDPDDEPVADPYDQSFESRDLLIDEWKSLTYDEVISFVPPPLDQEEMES
Experiment: Purified and activated recombinant human p38α HTRF assay
Format: biochemical
Conditions: 50 μM ATP, read-out: p38a IC50
metric: pIC50
Please express pIC50 as -log10 of the molar concentration.

**Q:** For the compound shown here, Fc1ccc(Nc2ccc3c(-c4cn[nH]c4)nncc3n2)c(F)c1 [Example 13] , give the reported pIC50.
**A:** 8.46

**Q:** For the compound shown here, Cc1cc(F)ccc1Oc1ccc2c(-c3cc(C(N)=O)ccc3C)nncc2n1 [Example 23] , give the reported pIC50.
**A:** 6.38

**Q:** For the compound shown here, Fc1ccc(Nc2ccc3c(-c4ccc(F)cc4F)nncc3n2)c(F)c1 [Example 10] , give the reported pIC50.
**A:** 9.52

**Q:** For the compound shown here, Cc1ccc(C(N)=O)cc1-c1nncc2nc(Oc3ccc(F)cc3)ccc12 [Example 20] , give the reported pIC50.
**A:** 8.92

**Q:** For the compound shown here, Cc1cc(S(C)(=O)=O)ccc1-c1nncc2nc(Nc3ccc(F)cc3)ccc12 [Example 9] , give the reported pIC50.
**A:** 9.05

**Q:** For the compound shown here, Cc1noc(C)c1-c1nncc2nc(Oc3ccc(F)cc3F)ccc12 [Example 21] , give the reported pIC50.
**A:** 8.19

**Q:** For the compound shown here, Cc1ccccc1-c1nncc2nc(Oc3ccc(F)cc3)ccc12 [Example 19] , give the reported pIC50.
**A:** 9.05

**Q:** For the compound shown here, Cc1cc(F)ccc1Oc1ccc2c(-c3ccccc3C)nncc2n1 [Example 22] , give the reported pIC50.
**A:** 6.77

**Q:** For the compound shown here, Cc1cc(S(C)(=O)=O)ccc1-c1nncc2nc(Nc3ccc(F)cc3F)ccc12 [Example 7] , give the reported pIC50.
**A:** 9.30

**Q:** For the compound shown here, Fc1ccc(Oc2ccc3c(-c4cn[nH]c4)nncc3n2)c(F)c1 [Example 18] , give the reported pIC50.
**A:** 8.29

**Q:** For the compound shown here, O=C(c1cccc(-c2nncc3nc(Nc4ccc(F)cc4F)ccc23)c1)N1CCOCC1 [Example 11] , give the reported pIC50.
**A:** 7.35

Origin of the recorded values: patent US8772481B2
